Examples of molecules with documented EC50 follow.
Molecular target: Somatostatin receptor type 5 (Homo sapiens, UniProt P35346)
Sequence (P35346 whole entry): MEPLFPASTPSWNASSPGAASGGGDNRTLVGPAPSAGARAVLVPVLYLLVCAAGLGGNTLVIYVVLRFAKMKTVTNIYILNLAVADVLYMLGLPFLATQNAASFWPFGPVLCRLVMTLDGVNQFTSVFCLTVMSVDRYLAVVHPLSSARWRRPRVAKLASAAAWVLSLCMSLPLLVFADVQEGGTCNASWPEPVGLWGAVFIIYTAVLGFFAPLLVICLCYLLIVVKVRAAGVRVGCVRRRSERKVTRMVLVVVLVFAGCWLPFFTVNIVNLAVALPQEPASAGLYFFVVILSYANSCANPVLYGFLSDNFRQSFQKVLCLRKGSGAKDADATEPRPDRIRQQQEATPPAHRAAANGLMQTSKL
Test: Inhibition of forskolin-induced cAMP accumulation in CHO-K1 cells expressing human sst5 receptor
Format: functional, cell-based
Kindly write the number and append the unit.

Example molecules with recorded EC50:
| substance smiles | experimental system | result |
| --- | --- | --- |
| NCCCCn1c(SCCc2c[nH]c3cc(F)ccc23)nnc1-c1ccc2ccccc2n1 | Somatostatin receptor type 5 (Homo sapiens, UniProt P35346) | 44 nM |
| Cc1cccc2c(C(=O)CCSc3nnc(-c4ccc5ccccc5n4)n3CCCCN)c[nH]c12 | Somatostatin receptor type 5 (Homo sapiens, UniProt P35346) | 2.3 nM |
| NCCCCn1c(SCCc2c[nH]c3ccc(Cl)cc23)nnc1-c1ccc2ccccc2n1 | Somatostatin receptor type 5 (Homo sapiens, UniProt P35346) | 52 nM |

For the next question, use this molecule.
Query string: Entry `Cc1cccc2c(CCSc3nnc(-c4ccc5ccccc5n4)n3CCCCN)c[nH]c12` needs its EC50 filled in; supply it.
Result string: 34 nM

Attribution: ChEMBL document CHEMBL1139584
